Data origin, for the record: paper PMC5540273

Tested on: CDC2L2;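 further: KINOMEscan kinase panel screen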
Conditions: concentration: 1 μM,replicates: in singlicate; n = 1
Form field: %Inh (one value per entry).

smi | %Inh
CC(C)S(=O)(=O)N1CCN(Cc2ccc3c(c2)nc(NC(=O)c2ccsc2)n3C[C@H](O)c2ccccc2)CC1 | 4%
CC(=O)c1c(-c2ccncc2)[nH]c(-c2ccncc2)c1C | 4%
COC(=O)c1cccc(NC(=O)NC2CCN(c3ccnc(NCc4ccc(F)cc4)n3)CC2)c1 | 0%
Cc1ccc2c(-c3ccnc(Nc4ccc(C(F)(F)F)cc4)n3)cnn2n1 | 0%
C[C@@H]1CCN(C(=O)N2CCCC2)C[C@@H]1N(C)c1ncnc2[nH]ccc12 | 0%
Cn1ccc2ncnc(Oc3ccc(NC(=O)Nc4ccnc(C(F)(F)F)c4)c(Cl)c3)c21 | 0%
CN(c1cccc(CNc2nc(Nc3ccc4c(c3)CC(=O)N4)ncc2C(F)(F)F)c1)S(C)(=O)=O | 7%
Cl.Cl.NC[C@H](CC1CCCCC1)NC(=O)c1ccc(-c2ccnc3[nH]ccc23)s1 | 0%
